Where do these numbers come from? They come from patent US20240360228A1.

Listing of recorded % Blocking by entry.
- experimental_target: T1, human CCR8 (human, UniProt P51685 1-355)
- T1 construct: Native CCR8 on human PBMC (CCR8+ CD3+ or CCR8+ CD4+ lymphocytes); also called chemokine (C-C motif) receptor 8
- T1 sequence (P51685 whole entry): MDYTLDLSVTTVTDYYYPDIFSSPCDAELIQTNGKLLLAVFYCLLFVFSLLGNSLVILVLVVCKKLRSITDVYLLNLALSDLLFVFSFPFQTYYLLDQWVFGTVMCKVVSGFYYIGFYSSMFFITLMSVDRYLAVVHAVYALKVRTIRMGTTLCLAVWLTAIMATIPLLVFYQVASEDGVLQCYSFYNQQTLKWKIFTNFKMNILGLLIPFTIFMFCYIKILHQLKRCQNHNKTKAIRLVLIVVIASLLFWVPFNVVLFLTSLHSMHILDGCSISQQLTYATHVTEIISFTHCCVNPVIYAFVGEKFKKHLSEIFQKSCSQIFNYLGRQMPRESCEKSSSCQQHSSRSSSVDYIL
- protocol: flow blocking, PBMC CCR8+CD3+; competitor PE-AB14
Please give a number only; it is taken to be in %.

Worked cases, answers included:
AB7 (antibody, V domains shown, Hybridoma monoclonal; also called antibody 7; clone 7) VH: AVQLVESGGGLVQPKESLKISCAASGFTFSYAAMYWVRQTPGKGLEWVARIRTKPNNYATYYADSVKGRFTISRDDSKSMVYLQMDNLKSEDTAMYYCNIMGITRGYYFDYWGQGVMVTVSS VL: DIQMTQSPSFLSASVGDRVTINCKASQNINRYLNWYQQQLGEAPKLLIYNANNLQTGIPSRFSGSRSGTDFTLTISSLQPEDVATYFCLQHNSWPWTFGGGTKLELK    28.5
AB11 (antibody, V domains shown, Hybridoma monoclonal; also called antibody 11; clone 11) VH: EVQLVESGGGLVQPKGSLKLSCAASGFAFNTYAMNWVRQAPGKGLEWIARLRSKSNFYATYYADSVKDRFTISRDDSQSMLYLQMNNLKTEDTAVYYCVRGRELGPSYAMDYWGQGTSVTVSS VL: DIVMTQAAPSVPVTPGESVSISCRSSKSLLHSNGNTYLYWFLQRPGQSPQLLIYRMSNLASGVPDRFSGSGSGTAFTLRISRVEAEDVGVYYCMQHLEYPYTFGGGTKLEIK    41.4
AB13 (antibody, V domains shown, Hybridoma monoclonal; also called antibody 13; clone 13) VH: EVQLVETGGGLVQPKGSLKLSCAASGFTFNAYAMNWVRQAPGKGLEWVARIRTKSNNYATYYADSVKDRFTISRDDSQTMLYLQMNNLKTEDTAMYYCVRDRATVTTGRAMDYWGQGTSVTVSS VL: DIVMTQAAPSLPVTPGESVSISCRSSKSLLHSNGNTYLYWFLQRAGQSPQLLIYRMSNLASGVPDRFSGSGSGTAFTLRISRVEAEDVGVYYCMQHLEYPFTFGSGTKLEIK    30.8

Moving on to the next binder.
Reported % Blocking of AB10 (antibody, V domains shown, Hybridoma monoclonal; also called antibody 10; clone 10) VH: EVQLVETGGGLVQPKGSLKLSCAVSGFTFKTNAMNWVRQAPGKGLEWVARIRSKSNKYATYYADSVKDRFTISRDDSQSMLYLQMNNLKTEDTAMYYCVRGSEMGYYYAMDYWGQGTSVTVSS VL: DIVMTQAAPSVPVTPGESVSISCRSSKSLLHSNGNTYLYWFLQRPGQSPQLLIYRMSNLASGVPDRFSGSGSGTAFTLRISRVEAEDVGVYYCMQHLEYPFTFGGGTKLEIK : 38.9
